Target: T1, GtComGD (Geobacillus thermodenitrificans, UniProt A0ABY9Q9R4 29-145)
T1 sequence: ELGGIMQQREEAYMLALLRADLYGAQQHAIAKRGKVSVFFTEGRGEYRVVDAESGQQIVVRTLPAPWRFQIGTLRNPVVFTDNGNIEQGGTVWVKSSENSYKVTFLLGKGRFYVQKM
Assay: EMSA
pKd: −log10 of the molar value.
measurement.type: pKd

> print(dat)
                                     binder  measurement.type  reported
1  TTTTTTTTTTTTTTTTTTTTTTCCCACAACAAGCCACCCG (ssDNA) [40 nt ssDNA (EMSA, Fig. S3A)]               pKd     ~4.87
